- System: Candida albicans
- Method notes: Antimicrobial activity against Candida albicans ATCC 24433 by broth microdilution method
- Format: functional
Each entry below carries its reported log10 of MIC.
The common logarithm of MIC in µg/mL is what is listed.

Below, 5 molecules whose answers are already recorded.
C[C@@H](C[C@H]1CO[C@H](/C=C/c2ccc(C(F)(F)F)cc2)OC1)[C@](O)(Cn1cncn1)c1ccc(F)cc1F.O=C(O)C(=O)O = -1.51
C[C@@H](C[C@H]1CO[C@H](c2ccc(C(F)(F)F)cc2)OC1)[C@](O)(Cn1cncn1)c1ccc(F)cc1F.O=C(O)C(=O)O = -1.80
C[C@@H](S[C@H]1CO[C@H](c2ccc(C(F)(F)F)cc2)OC1)[C@](O)(Cn1cncn1)c1ccc(F)cc1F = -1.80
C[C@@H](S[C@H]1CO[C@H](/C=C/c2ccc(C(F)(F)F)cc2)OC1)[C@](O)(Cn1cncn1)c1ccc(F)cc1F = -1.20
C[C@@H](C[C@H]1CO[C@H](/C=C/C=C/C=C/c2ccc(C(F)(F)F)cc2)OC1)[C@](O)(Cn1cncn1)c1ccc(F)cc1F.O=C(O)C(=O)O = -0.90

Q) Sample C[C@@H](S[C@H]1CO[C@H](/C=C/C=C/c2ccc(C(F)(F)F)cc2)OC1)[C@](O)(Cn1cncn1)c1ccc(F)cc1F.O=C(O)C(=O)O — what was its log10 of MIC?
A) -0.90

Q) Consider the molecule C[C@@H](S[C@H]1CO[C@H](/C=C/C=C/C=C/c2ccc(C(F)(F)F)cc2)OC1)[C@](O)(Cn1cncn1)c1ccc(F)cc1F.O=C(O)C(=O)O and give its measured log10 of MIC.
A) -0.60

====

The compounds listed here are annotated with their MIC.
- Tested on: Candida albicans
- Method notes: Antimicrobial activity against Candida albicans ATCC 24433 by broth microdilution method
- Assay type: functional
Enter your answer as a number in µg/mL; do not include the unit.

The cases that follow already have their MIC on record.
CCC(C)n1ncn(-c2ccc(N3CCN(c4ccc(OCC5COC(Cn6cncn6)(c6ccc(Cl)cc6Cl)O5)cc4)CC3)cc2)c1=O (stereo not drawn) = 0.125
C[C@@H](C[C@H]1CO[C@H](/C=C/C=C/c2ccc(C(F)(F)F)cc2)OC1)[C@](O)(Cn1cncn1)c1ccc(F)cc1F.O=C(O)C(=O)O = 0.016

Okay, now this compound:
Q) # lookup: MIC of OC(Cn1cncn1)(Cn1cncn1)c1ccc(F)cc1F
A) 0.5

====

- System: Nakaseomyces glabratus
- Method notes: Antimicrobial activity against Candida glabrata ATCC 90030 by broth microdilution method
- Type: functional
Parameter measured: MIC (µg/mL)
Give the value in µg/mL but do not write µg/mL after it.

Q) Any idea what its MIC is? The compound is C[C@@H](C[C@H]1CO[C@H](/C=C/c2ccc(C(F)(F)F)cc2)OC1)[C@](O)(Cn1cncn1)c1ccc(F)cc1F.O=C(O)C(=O)O
A) 1

Q) What value of measured MIC is listed for C[C@@H](S[C@H]1CO[C@H](c2ccc(C(F)(F)F)cc2)OC1)[C@](O)(Cn1cncn1)c1ccc(F)cc1F ?
A) 1

Q) What does the record list as MIC for C[C@@H](C[C@H]1CO[C@H](c2ccc(C(F)(F)F)cc2)OC1)[C@](O)(Cn1cncn1)c1ccc(F)cc1F.O=C(O)C(=O)O ?
A) 1

Q) Form field: reported MIC of C[C@@H](C[C@H]1CO[C@H](/C=C/C=C/C=C/c2ccc(C(F)(F)F)cc2)OC1)[C@](O)(Cn1cncn1)c1ccc(F)cc1F.O=C(O)C(=O)O
A) 2

Q) Name the reported MIC value associated with the compound CCC(C)n1ncn(-c2ccc(N3CCN(c4ccc(OCC5COC(Cn6cncn6)(c6ccc(Cl)cc6Cl)O5)cc4)CC3)cc2)c1=O (stereo unspecified)
A) 1
